All values here come from the supplement of paper PMC11451515.

tested on: NOMO1; assay: cell viability relative to DMSO control; higher = less cytotoxic; conditions: RPMI 5 mM glucose + 10% dialyzed FBS; 48 h; 5.12 µM
REPORTED PROPERTY: cell viability (%)
Give the quantity in %, number only.

SMILES STRING: Cc1[nH]c(/C=C2\C(=O)Nc3ccc([S+](=O)([O-])Cc4c(Cl)cccc4Cl)cc32)c(C)c1C(=O)N1CCC[C@@H]1CN1CCCC1
SUBJECT OF TEST: NOMO1
cell viability, %: 86.4
--
SMILES STRING: COC(=O)[C@@H](N)CCCNC(=N)N[N+](=O)[O-]
SUBJECT OF TEST: NOMO1
cell viability, %: 94.2
--
SMILES STRING: COc1cc(N[S+](=O)([O-])c2ccc(N)cc2)nc(OC)n1
SUBJECT OF TEST: NOMO1
cell viability, %: 94

// recorded cell viability for Cc1ccc(-c2ncn(-c3ccc(Nc4nccc(-c5cccc(N6CCOCC6)c5)n4)cc3)n2)cn1 : 8.22

====

test system: SEM cells; assay: cell viability relative to DMSO control; higher = less cytotoxic; conditions: HPLM + 10% dialyzed FBS; 48 h; 0.00702 µM
Measured cell viability, listed per entry.
Give the quantity in %, number only.

# example entries with known answers
MOLECULE: CC(C)[C@H](CO)Nc1nc(Nc2cccc(Cl)c2)c2ncn(C(C)C)c2n1
REPORTED PROPERTY: cell viability
MEAS VALUE: 97.6
--
MOLECULE: C[N+](C)([O-])CCNc1ccc(NCC[N+](C)(C)[O-])c2c1C(=O)c1c(O)ccc(O)c1C2=O
REPORTED PROPERTY: cell viability
MEAS VALUE: 83.8
--
MOLECULE: COc1ccc(Nc2cc(-c3cnc(N)nc3)nc(N3CCOCC3)n2)cn1
REPORTED PROPERTY: cell viability
MEAS VALUE: 90.6
--
MOLECULE: OC(COC1=C2C(=O)\C=C(/OC2=CC=C1)C([O-])=O)COC3=C4C(=O)\C=C(/OC4=CC=C3)C([O-])=O
REPORTED PROPERTY: cell viability
MEAS VALUE: 76
--
MOLECULE: Cc1ccc(C(=O)c2cc(O)c(O)c([N+](=O)[O-])c2)cc1
REPORTED PROPERTY: cell viability
MEAS VALUE: 98.5

// recorded cell viability for OC1=CC=C(C=C1)\C2=C\C(=O)C3=C(O2)C=C(O)C=C3O : 115

// recorded cell viability for COc1cc(OC)c(NC(=O)Nc2cc(C)on2)cc1Cl : 104

// recorded cell viability for CNCC(O)C(O)C(O)C(O)CO.O=C(O)c1ccc(-c2cc3cccnc3c(-c3ccc4nonc4c3)n2)cc1 : 99.1

// recorded cell viability for Cc1ccc(-c2ncn(-c3ccc(Nc4nccc(-c5cccc(N6CCOCC6)c5)n4)cc3)n2)cn1 : 103

// recorded cell viability for CC(C)C[C@H](NC(=O)[C@H](Cc1ccccc1)NC(=O)c1cnccn1)B(O)O : 95.9

// recorded cell viability for CC(C)(C)NC(=O)[C@H]1CC[C@H]2[C@@H]3CC[C@H]4NC(=O)\C=C/[C@]4(C)[C@H]3CC[C@]12C : 98.7

// recorded cell viability for Cc1cn(CCN2CCN(c3ccccc3-c3cc(C#N)cc(C(=O)NCCCN4CCCC4)c3)CC2)c2ccccc12 : 94.9

// recorded cell viability for COC(=O)/C=C/C(=O)OC : 106

// recorded cell viability for C#C[C@]1(O)CC[C@H]2[C@@H]3CCc4cc(OC)ccc4[C@H]3CC[C@@]21C : 114

// recorded cell viability for O=C(CCCCCCC(=O)Nc1ccccc1)NO : 102

// recorded cell viability for CC(C)c1ccccc1Cc1cc(C(=O)Nc2ccc([S+](=O)([O-])c3ccccc3C(C)(C)C)cc2)c(O)c(O)c1O : 116

====

tested on: NOMO1; experiment: cell viability relative to DMSO control; higher = less cytotoxic; conditions: RPMI 5 mM glucose + 10% dialyzed FBS; 48 h; 0.0632 µM
REPORTED PROPERTY: cell viability (%)
Give the quantity in %, number only.

# example entries with known answers
COMPOUND: CCN(CC)CCN1C(=O)\C(=N/C2=CC=CC=C12)CC3=CC=C(OC)C=C3
cell viability, %: 115

COMPOUND: COc1ccc(Nc2cc(-c3cnc(N)nc3)nc(N3CCOCC3)n2)cn1
cell viability, %: 91.6

COMPOUND: Cc1cn(CCN2CCN(c3ccccc3-c3cc(C#N)cc(C(=O)NCCCN4CCCC4)c3)CC2)c2ccccc12
cell viability, %: 120

COMPOUND: CCNc1cc(NC2CCC(O)CC2)nc(Nc2ccc3c(ccn3Cc3ccccc3)c2)n1 (stereo not given)
cell viability, %: 141

Now consider a different compound.
// recorded cell viability for NC(=O)c1cccc(N)c1 : 109

====

system: SEM cells; experiment: cell viability relative to DMSO control; higher = less cytotoxic; details: HPLM + 10% dialyzed FBS; 48 h; 46.1 µM
REPORTED PROPERTY: cell viability (%)
Give the quantity in %, number only.

// returns cell viability for COc1cc([C@@H]2c3cc4c(cc3[C@@H](O[C@@H]3O[C@@H]5CO[C@@H](c6cccs6)O[C@H]5[C@H](O)[C@H]3O)[C@H]3COC(=O)[C@H]23)OCO4)cc(OC)c1O with SEM cells; value = 4.57

====

test system: NOMO1; test: cell viability relative to DMSO control; higher = less cytotoxic; details: RPMI 5 mM glucose + 10% FBS; 48 h; 5.12 µM
REPORTED PROPERTY: cell viability (%)
Give the quantity in %, number only.

# example entries with known answers
MOLECULE: CC(C)(C)c1cc(C(=O)O)c(NC(=O)Nc2ccc3[nH]ncc3c2)s1
UNIT ABBREVIATION: %
MEAS VALUE: 91.2
--
MOLECULE: COc1cc([C@@H]2c3cc4c(cc3[C@@H](O[C@@H]3O[C@@H]5CO[C@@H](c6cccs6)O[C@H]5[C@H](O)[C@H]3O)[C@H]3COC(=O)[C@H]23)OCO4)cc(OC)c1O
UNIT ABBREVIATION: %
MEAS VALUE: 101
--
MOLECULE: O=C1CCc2ccc(OCCCCN3CCN(c4cccc(Cl)c4Cl)CC3)cc2N1
UNIT ABBREVIATION: %
MEAS VALUE: 81.6
--
MOLECULE: O=C(CCCCCCC(=O)Nc1ccccc1)NO
UNIT ABBREVIATION: %
MEAS VALUE: 83.3
--
MOLECULE: Cc1cc(Cl)ccc1OCCCC(=O)NO
UNIT ABBREVIATION: %
MEAS VALUE: 94

// recorded cell viability for Cc1cc(O)c2c(c1)C(=O)c1cc(O)cc(O)c1C2=O : 90.4

// recorded cell viability for C[S+]([O-])c1ccc(-c2nc(-c3ccc(F)cc3)c(-c3ccncc3)[nH]2)cc1 (stereo not drawn) : 29.7

// recorded cell viability for CC(=O)[C@H]1CC[C@H]2[C@@H]3CCC4=CC(=O)CC[C@]4(C)[C@H]3CC[C@]12C : 128

====

system: NOMO1; experiment: cell viability relative to DMSO control; higher = less cytotoxic; conditions: RPMI 5 mM glucose + 10% FBS; 48 h; 0.000781 µM
In plain terms, low cell viability, meaning strictly below 90%, gives 1.0, and everything else gives 0.0.

SMILES STRING: N#CC(=C(/N)Sc1ccccc1N)/C(C#N)=C(\N)Sc1ccccc1N
SUBJECT OF TEST: NOMO1
CATEGORY: 0.0
//
SMILES STRING: OC(COC1=C2C(=O)\C=C(/OC2=CC=C1)C([O-])=O)COC3=C4C(=O)\C=C(/OC4=CC=C3)C([O-])=O
SUBJECT OF TEST: NOMO1
CATEGORY: 1.0

Task item: Item OC1=CC=C(C=C1)\C2=C\C(=O)C3=C(O2)C=C(O)C=C3O : cell viability beneath 90%, strictly?
Reply: 0.0

====

Measured cell viability, listed per entry.
tested on: P12-Ichikawa; experiment: cell viability relative to DMSO control; higher = less cytotoxic; settings: RPMI 5 mM glucose + 10% dialyzed FBS; 48 h; 5.12 µM
Give the quantity in %, number only.

# example entries with known answers
MOLECULE: C#C[C@]1(O)CC[C@H]2[C@@H]3CCc4cc(OC)ccc4[C@H]3CC[C@@]21C
SUBJECT OF TEST: P12-Ichikawa
cell viability, %: 101
//
MOLECULE: CC(C)NCC(O)COc1ccc(CCOCC2CC2)cc1 (stereo not given)
SUBJECT OF TEST: P12-Ichikawa
cell viability, %: 113
//
MOLECULE: CN(C)c1ccc(Nc2nc(N)n(C(=O)c3c(F)cccc3F)n2)cc1
SUBJECT OF TEST: P12-Ichikawa
cell viability, %: 120

// recorded cell viability for CN[S+](=O)([O-])CCc1ccc2[nH]cc(C3CCN(C)CC3)c2c1 : 97.4

// recorded cell viability for CN(C)CC/C=C1/c2ccccc2COc2ccc(CC(=O)O)cc21 : 134

// recorded cell viability for CCN(C)C(=O)Oc1cccc([C@H](C)N(C)C)c1 : 93.4

// recorded cell viability for C[C@@H]1CC[C@@]2(OC1)OC1CC3C4CC=C5CC(O)CCC5(C)C4CCC3(C)C1[C@@H]2C (stereo not given in full) : 119

// recorded cell viability for CC(C)(C)NC(=O)[C@@H]1CN(Cc2cccnc2)CCN1C[C@@H](O)C[C@@H](Cc1ccccc1)C(=O)N[C@H]1c2ccccc2C[C@H]1O.O=S(=O)(O)O : 111

// recorded cell viability for Nc1nc(OCc2ccccc2)c2nc[nH]c2n1 : 121
